B1: WEE1 (parent)
chain: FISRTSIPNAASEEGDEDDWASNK

variants of: B1; assay: protein stability index of a GFP-peptide fusion (GPS, HEK-293T) (PSI 1-6); higher = more stable; details: c terminus: a fixed tail appended;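 further: lentivirally expressed fusions sorted by FACS into six bins by GFP to DsRed ratio, PSI derived from sequencing read proportions per bin multiplied by bin number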
protein stability index values by entry

Consider the worked cases shown below.
S12V    3.91
E17D    4.06
E14K    4.03

With those in mind, consider the next variant.
What does the record list as protein stability index for `A10H` ?
4.06
